Examples of molecules with documented activation follow.
ASSAY SYSTEM: Mu-type opioid receptor (Homo sapiens) (UniProt P35372)
Sequence (P35372 whole entry, looked up): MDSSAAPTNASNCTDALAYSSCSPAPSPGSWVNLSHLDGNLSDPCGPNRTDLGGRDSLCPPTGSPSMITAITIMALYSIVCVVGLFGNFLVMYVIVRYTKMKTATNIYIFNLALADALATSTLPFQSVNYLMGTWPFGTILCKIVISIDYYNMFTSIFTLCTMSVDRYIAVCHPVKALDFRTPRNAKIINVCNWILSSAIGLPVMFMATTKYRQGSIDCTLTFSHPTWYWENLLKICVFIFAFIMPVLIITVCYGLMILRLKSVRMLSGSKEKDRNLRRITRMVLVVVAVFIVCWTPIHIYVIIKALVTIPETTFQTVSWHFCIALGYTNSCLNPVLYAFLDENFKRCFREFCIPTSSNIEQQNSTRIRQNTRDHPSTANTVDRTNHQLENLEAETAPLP
PROTOCOL NOTES: OPRM1 agonists via beta-arrestin recruitment, confirmation, counter-screen for mouse HTR2A agonist project, cell-based, luminescence, single concentration (AID 624380)
ASSAY SETUP: U2OS OPRM1 beta-arrestin PathHunter, at 9.3 µM, stronger effect = higher value, DMSO 0%, DAMGO 9.3 µM 100%
Out of some 2,300 compounds screened, about 120 (5.2%) were called active. Only a sample is shown.
READOUT NAME: activation (%)

1) CS(=O)(=O)c1ccc2nc(NC(=O)C3CCCCC3)sc2c1 | -0.72
2) Cc1c(C(=O)NCC2CC2)sc(=O)n1Cc1cccc(F)c1 | -0.53
3) CCCCNc1c(-c2cccc(Sc3ccc(OC)cc3)c2)nc2ccccn12 | -0.06
4) CC(=O)c1ccc(OCC(=O)N(C)C2CCS(=O)(=O)C2)cc1 (configuration not stated) | -0.71
5) Cc1[nH]c2ccccc2c1CCN(Cc1cccs1)C(=S)NC(C)(C)C | -0.25
6) Cc1cc([N+](=O)[O-])ccc1NC1CCCC1 | 0.02
7) COc1ccc(-c2nc3cc([N+](=O)[O-])ccc3o2)cc1OC | 0.11
8) Cc1ccc(CN2CCN(c3ncccn3)CC2)c(C)c1 | -0.26
9) COC(=O)[C@]12CCCCC=C1N(CCC1=CCCCC1)C(=O)[C@H](CC(=O)NCC1CCCCC1)C2 | -0.46
10) FC(F)(F)COc1nc(N2CCCCC2)nc(N2CCNCC2)n1 | -0.49
11) Cc1cccnc1C(NC(=O)C1CCN(Cc2ccc(Cl)c(Cl)c2)CC1)c1ccc(Cl)cc1 (configuration not stated) | -0.69
12) COc1ccc(C2c3[nH]c4ccccc4c3C[C@H]3C(=O)N(CC(C)C)CC(=O)N23)c(OC)c1 (some centres not stated) | -0.31
13) CC(=O)N1c2ccc(S(=O)(=O)N3CCC(C(=O)NC4CCCCC4C)CC3)cc2CC1C (configuration not stated) | -0.74
14) COc1ccc2c(Cl)c(-c3nnco3)sc2c1 | -0.41
15) O=C1CC(c2cccc(Cl)c2)CC(O)=C1C=Nc1ccccc1 (configuration not stated) | -0.61
16) O=C(c1ccco1)N1CCN(CCOc2ccccc2)CC1 | -0.48
17) O=C1CCc2cc(S(=O)(=O)N3CCC(C(=O)NCc4ccccc4Cl)CC3)ccc2N1 | -0.62
18) Cc1cc(C(=O)OCC(=O)N2c3ccccc3NC(=O)C2(C)C)c(C)n1-c1ccccc1 | -0.15
19) C[C@@H]1ON(C)[C@H]2C[C@H]3c4cc(N5CCN(C)CC5)ccc4CCN3C(=O)[C@@H]12 | -0.06
20) COc1ccc(CNC(=O)c2ccc(NS(=O)(=O)c3ccc4[nH]c(=O)[nH]c4c3)cc2)cc1OC | -0.74
21) C/C(=N\NC(=O)COc1c(C)cccc1C)c1cccs1 | -0.05
22) COC(=O)Cn1nc(-c2ccccc2)c2cc(Cl)ccc21 | -0.43

Measured values drawn from PubChem BioAssay AID624380 for this set.
